All values here come from patent US11117899B2.

Biological target: Human adenosine A2A receptor (Homo sapiens, UniProt P29274)
Sequence (P29274 whole entry): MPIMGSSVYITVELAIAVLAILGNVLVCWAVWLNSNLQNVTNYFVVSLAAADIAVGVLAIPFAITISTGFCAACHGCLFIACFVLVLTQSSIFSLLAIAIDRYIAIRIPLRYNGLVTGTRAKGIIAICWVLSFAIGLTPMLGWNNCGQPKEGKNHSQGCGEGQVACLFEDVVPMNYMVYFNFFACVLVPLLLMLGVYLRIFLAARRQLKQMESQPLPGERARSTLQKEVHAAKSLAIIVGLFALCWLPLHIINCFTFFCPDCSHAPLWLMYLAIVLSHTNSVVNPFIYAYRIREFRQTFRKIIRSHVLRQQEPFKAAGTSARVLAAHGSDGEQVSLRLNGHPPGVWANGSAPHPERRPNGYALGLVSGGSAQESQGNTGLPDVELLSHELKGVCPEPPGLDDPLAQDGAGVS
Test: Human adenosine A2A receptor calcium flux assay
Settings: A2A stable CHO cell strain, antagonist mode against agonist NECA at EC80, FLIPR Fluo-4
reported.metric: IC50 (nM)
Just the number please, in nM, no unit attached.

Cc1cc(-c2c(-c3ccc(F)cc3)nc(N)n3nc(C(F)(F)F)nc23)cc(C)n1    4.49
Cc1cc(-c2c(-c3ccc(Cl)cc3)nc(N)n3ncnc23)cc(C(F)(F)F)n1    1.13
Cc1cc(-c2c(-c3ccncc3)nc(N)n3ncnc23)cc(C(F)(F)F)n1    3.87
Nc1nc(-c2ccc(F)cc2F)c(-c2ccc3[nH]nnc3c2)c2nc(C(F)(F)F)nn12    73.8
Nc1nc(-c2ccccc2)c(-c2cc(C3CC3)nc(C(F)(F)F)c2)c2ncnn12    50.5
Cc1cc(-c2c(-c3ccccc3F)nc(N)n3nc(CO)nc23)cc(C(F)(F)F)n1    1.75

Check the records and state IC50 for "Cc1cc(-c2c(-c3ccc(C)o3)nc(N)n3nc(C#N)nc23)cc(C(F)(F)F)n1"
1.72

Check the records and state IC50 for "CCc1nc2c(-c3ccc4nn[nH]c4c3)c(-c3ccc(F)cc3F)nc(N)n2n1"
15.3

* * *

Molecular target: Human adenosine A2A receptor (Homo sapiens)
Experiment: Human adenosine A2A receptor calcium flux assay
Conditions: A2A stable CHO cell strain, antagonist mode against agonist NECA at EC80, FLIPR Fluo-4
Experimental: Human adenosine A2A receptor calcium flux assay A2A stable cell strain was constructed by Shanghai WuXi PharmaTech, and the host cell was CHO. Fluo-4 Direct Kit (Invitrogen, Cat. No. F10471). […] FLIPR instrument software was run. According to the programmed procedure, 10 ul of compound dilution buffer was added to the cell plate and the fluorescence signal was read. […] FLIPR instrument software was run. […] Data were analyzed by GraphPad Prism 5.0 and the IC50 values of the test compounds were calculated.
reported.metric: IC50 (nM)
Just the number please, in nM, no unit attached.

Illustrative cases are given below, each with its answer.
Nc1nc(-c2ccccc2)c(-c2ccc3[nH]nnc3c2)c2nc(CO)nn12 [Example C-24]    0.95
Cc1cc(-c2c(-c3ccccc3)nc(N)n3ncnc23)ccc1F [Example B-2]    7.82
COc1ccccc1-c1nc(N)n2ncnc2c1-c1cc(Cl)nc(C(F)(F)F)c1 [Example A-31]    1.25
Cc1cc(-c2c(-c3ccc(C(F)(F)F)cc3)nc(N)n3ncnc23)cc(C(F)(F)F)n1 [Example A-13]    13.8
Nc1nc(-c2ccccc2)c(-c2cc(Cl)nc(C(F)(F)F)c2)c2ncnn12 [Example B-28]    1.55
Cc1cc(-c2c(-c3ccccc3)nc(N)n3nc(CO)nc23)cc(C(F)(F)F)n1 [Example C-33]    0.65
Cc1cc(-c2c(-c3ccccc3)nc(N)n3ncnc23)cc(Cl)n1 [Example B-31]    0.28
Cc1cc(-c2c(-c3ccccc3)nc(N)n3nc(C(=O)O)nc23)cc(C(F)(F)F)n1 [Example C-80]    1.82

Now let's try a different one.
Check the records and state IC50 for Cc1cc(-c2c(-c3ccc(F)cc3F)nc(N)n3nc(C)nc23)cc(C(F)(F)F)n1 [Example C-51]
13.6

* * *

Assay: Pharmacokinetics in female Balb/c mice
Assay type: in vivo
Settings: mouse, plasma, single intravenous injection / single oral administration, read-out: Bioavailability F
Method: Objective: To test the pharmacokinetics of compounds in female Balb/c mice in vivo Balb/c mice (female, 15-30 g, 7-9 weeks old, Shanghai Lingchang) The pharmacokinetics profile of the compounds in rodent after intravenous injection and oral administrations was tested using a standard protocol. […]
Measured bioavailability values are reported for all entries that follow.
Just the number please, in %, no unit attached.

Illustrative cases are given below, each with its answer.
Cc1cc(-c2c(-c3ccccc3)nc(N)n3nc(CO)nc23)cc(C(F)(F)F)n1    95.2
Cc1cc(-c2c(-c3ccccc3)nc(N)n3ncnc23)cc(C)n1    91
Cc1cc(-c2c(-c3ccc(F)cc3)nc(N)n3nc(C(F)(F)F)nc23)cc(C)n1    69.3
Cc1cc(-c2c(-c3ccc(F)cc3)nc(N)n3nc(C)nc23)cc(C(F)(F)F)n1    44
Cc1cc(-c2c(-c3ccc(F)cc3)nc(N)n3nc(CO)nc23)cc(C(F)(F)F)n1    82.9

Check the records and state bioavailability for "Cc1cc(-c2c(-c3ccccc3)nc(N)n3nc(CO)nc23)cc(C)n1"
70.7

* * *

Biological target: Human adenosine A2A receptor (Homo sapiens, UniProt P29274)
Assay: Human adenosine A2A receptor calcium flux assay
Conditions: A2A stable CHO cell strain, antagonist mode against agonist NECA at EC80, FLIPR Fluo-4
Experimental: Human adenosine A2A receptor calcium flux assay A2A stable cell strain was constructed by Shanghai WuXi PharmaTech, and the host cell was CHO. Fluo-4 Direct Kit (Invitrogen, Cat. No. F10471). […] FLIPR instrument software was run. According to the programmed procedure, 10 ul of compound dilution buffer was added to the cell plate and the fluorescence signal was read. […] FLIPR instrument software was run. […] Data were analyzed by GraphPad Prism 5.0 and the IC50 values of the test compounds were calculated.
With a cut-off of 0.9 nM, any IC50 strictly below it is called condition met; any IC50 meeting it or above is called condition not met.

Cc1cc(-c2c(-c3ccccc3)nc(N)n3nc(C)nc23)cc(Cl)n1    condition met
COc1ccccc1Cc1nc2c(-c3cc(C)nc(C)c3)c(-c3ccccc3)nc(N)n2n1    condition not met
Cc1cc(-c2c(-c3ccccc3F)nc(N)n3ncnc23)cc(C(F)(F)F)n1    condition not met
Cc1cc(-c2c(-c3ccc(F)cc3)nc(N)n3nc(C#N)nc23)cc(Cl)n1    condition not met

Hello, is IC50 of the following compound strictly smaller than 0.9 nM? "Cc1cc(-c2c(-c3ccc(F)cc3)nc(N)n3nc(CO)nc23)cc(C)n1"
condition met

Hello, is IC50 of the following compound strictly smaller than 0.9 nM? "Cc1cc(-c2c(-c3ccc(F)cc3)nc(N)n3nc(C(C)(C)O)nc23)cc(Cl)n1"
condition met

* * *

Measured solubility at 24 h values are reported for all entries that follow.
Assay: Determination of kinetic solubility
Assay type: physicochemical
Conditions: aqueous buffer, kinetic from dmso stock, 50 mM phosphate buffer pH 7.4, 24 hours, room temperature, 200 μM maximum
Just the number please, in µM, no unit attached.

Cc1cc(-c2c(-c3ccccc3)nc(N)n3ncnc23)cc(C)n1    197
Cc1cc(-c2c(-c3cccc(F)c3F)nc(N)n3ncnc23)cc(C(F)(F)F)n1    92.5
COc1ccccc1-c1nc(N)n2ncnc2c1-c1cc(C)nc(C(F)(F)F)c1    160

Check the records and state solubility at 24 h for "Cc1cc(-c2c(-c3ccccc3)nc(N)n3ncnc23)cc(C(F)(F)F)n1"
185

* * *

Biological target: Human adenosine A2A receptor (Homo sapiens)
Experiment: Human adenosine A2A receptor calcium flux assay
Settings: A2A stable CHO cell strain, antagonist mode against agonist NECA at EC80, FLIPR Fluo-4
reported.metric: IC50 (nM)
Just the number please, in nM, no unit attached.

Cc1cc(-c2c(-c3ccccc3)nc(N)n3nc(COCc4ccccc4)nc23)cc(C)n1    0.82

Tell me IC50 of "COCc1nc2c(-c3cc(C)nc(C)c3)c(-c3ccccc3)nc(N)n2n1" when tested on Human adenosine A2A receptor (Homo sapiens).
0.68

Tell me IC50 of "Cc1cc(-c2c(-c3ccc(F)cc3F)nc(N)n3ncnc23)cc(C)n1" when tested on Human adenosine A2A receptor (Homo sapiens).
0.87

Tell me IC50 of "Cc1cc(-c2c(-c3ccccc3)nc(N)n3nc(C4CC4)nc23)cc(C)n1" when tested on Human adenosine A2A receptor (Homo sapiens).
0.78

Tell me IC50 of "Cc1cc(-c2c(-c3ccc(F)cc3)nc(N)n3nc(C)nc23)cc(C(F)(F)F)n1" when tested on Human adenosine A2A receptor (Homo sapiens).
3.08

* * *

Molecular target: UniProt P29274
Assay: Human adenosine A2A receptor calcium flux assay
Settings: A2A stable CHO cell strain, antagonist mode against agonist NECA at EC80, FLIPR Fluo-4
reported.metric: pIC50
Please treat pIC50 as minus the base-10 logarithm of the molar concentration.

Cc1cc(-c2c(-c3ccco3)nc(N)n3ncnc23)cc(C(F)(F)F)n1    8.94
Cc1cc(-c2c(-c3ccc(F)cc3)nc(N)n3nc(CO)nc23)cc(C(F)(F)F)n1    8.87
Cc1cc(-c2c(-c3ccccc3)nc(N)n3nc(C(F)(F)F)nc23)cc(C(F)(F)F)n1    8.78
Cc1cc(-c2c(-c3ccc(F)cc3)nc(N)n3nc(C#N)nc23)cc(C)n1    9.08
N#Cc1nc2c(-c3cc(Cl)nc(C(F)(F)F)c3)c(-c3ccc(F)cc3)nc(N)n2n1    7.77
Cc1cc(-c2c(-c3ccc(F)cc3)nc(N)n3nc(CN(C)C)nc23)cc(Cl)n1    9.08
COCc1nc2c(-c3cc(C)nc(C(F)(F)F)c3)c(-c3ccccc3)nc(N)n2n1    8.99
Cc1nc2c(-c3ccc4[nH]nnc4c3)c(-c3ccc(F)cc3)nc(N)n2n1    8.00
Cc1ccc(-c2nc(N)n3nc(C(F)(F)F)nc3c2-c2ccc3[nH]nnc3c2)o1    7.95
COc1ccccc1-c1nc(N)n2nc(C(F)(F)F)nc2c1-c1cc(C)nc(C(F)(F)F)c1    7.85

Check the records and state pIC50 for "Cc1cc(-c2c(-c3ccc(C)o3)nc(N)n3nc(C(F)(F)F)nc23)cc(C(F)(F)F)n1"
7.87

Check the records and state pIC50 for "COCCOCc1nc2c(-c3cc(C)nc(C(F)(F)F)c3)c(-c3ccc(F)cc3)nc(N)n2n1"
9.19

Check the records and state pIC50 for "COc1c(F)cc(F)cc1-c1nc(N)n2ncnc2c1-c1cc(Cl)nc(C(F)(F)F)c1"
7.82

Check the records and state pIC50 for "COc1cc(F)ccc1-c1nc(N)n2nc(C)nc2c1-c1cc(C)nc(C(F)(F)F)c1"
7.96

Check the records and state pIC50 for "COc1cc(F)ccc1-c1nc(N)n2ncnc2c1-c1cc(C)nc(C(F)(F)F)c1"
8.94

Check the records and state pIC50 for "Cc1cc(-c2c(-c3cccnc3)nc(N)n3ncnc23)cc(C(F)(F)F)n1"
7.94

Check the records and state pIC50 for "Cc1cc(-c2c(-c3ccccn3)nc(N)n3ncnc23)cc(C(F)(F)F)n1"
8.23

Check the records and state pIC50 for "Nc1nc(-c2ccccc2)c(-c2ccc3[nH]nnc3c2)c2nc(C(F)(F)F)nn12"
8.82
